For each entry below, report its phosphorylation enrichment value.
# Tested on: AncSZ
# TEST SUMMARY: phosphorylation enrichment, bacterial display (enrichment ratio); higher = better substrate or ligand; peptides without Tyr show the background;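 further: 11-residue human phosphosite peptides and single-mutation variants displayed on the E. coli surface, counted by deep sequencing, each peptide's frequency after selection divided by its frequency in the unselected input library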;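 further: frequency after pTyr selection over input frequency; kinase dosed for 20-30% of maximal phosphorylation in three min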
One number for each entry.

These recorded examples may help you get a feel for the data.
Problem: # return recorded phosphorylation enrichment for entry YISLIYTNYEA [GSTP1_Y109]
Result: 1.68

Problem: Specify reported phosphorylation enrichment for the sequence shown: QLATEYVFSDF [PANX1_Y10]
Result: 0.996

Consider the following items and state reported phosphorylation enrichment for each.
1. PSDPSYEDTRE [BMPR1A_Y467_M470T]
2. SPPEVYAIMRG [NTRK1_Y757_C752S]
3. EIASHYRHLLR [ZBTB46_Y14_T11A]
4. YPKVRYHWLVL [APTX_Y214_A212V]
5. SSEFHCVGGFF [CTSC_Y347_Y347C_YF]
6. DGTVHYVDEKG [IFT140_Y216]
7. QPDLLYDHIQP [TRRAP_Y862_F860L]

Result:
1. 1.66
2. 0.99
3. 0.597
4. 1
5. 0.997
6. 1.02
7. 3.04

----------
# TARGET OF ASSAY: Hck (UniProt P08631)
# Sequence (P08631 whole entry, looked up): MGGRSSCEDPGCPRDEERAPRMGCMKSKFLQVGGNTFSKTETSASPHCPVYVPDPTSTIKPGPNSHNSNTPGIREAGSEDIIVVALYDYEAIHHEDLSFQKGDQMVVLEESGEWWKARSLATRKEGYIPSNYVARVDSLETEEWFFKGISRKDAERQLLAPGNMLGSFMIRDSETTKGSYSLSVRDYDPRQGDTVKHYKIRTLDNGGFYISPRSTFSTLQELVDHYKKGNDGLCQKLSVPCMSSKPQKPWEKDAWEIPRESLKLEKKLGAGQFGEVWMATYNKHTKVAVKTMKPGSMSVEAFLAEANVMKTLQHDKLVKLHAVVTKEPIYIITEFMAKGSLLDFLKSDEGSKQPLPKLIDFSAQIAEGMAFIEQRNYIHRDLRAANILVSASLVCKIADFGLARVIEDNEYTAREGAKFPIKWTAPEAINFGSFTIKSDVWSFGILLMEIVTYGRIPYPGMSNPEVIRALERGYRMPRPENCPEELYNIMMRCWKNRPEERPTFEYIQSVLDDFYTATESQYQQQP
# TEST SUMMARY: phosphorylation enrichment, bacterial display (enrichment ratio); higher = better substrate or ligand; peptides without Tyr show the background
Kindly supply the reported phosphorylation enrichment values for the records listed here.
Numbers only.

For each of the items listed, what is its phosphorylation enrichment?
1. QPDLLYDHIQP [TRRAP_Y862_F860L]
2. PVGDVYKKKGL [NMNAT1_Y55_A54V]

Result:
1: 15.1; 2: 0.646

----------
Please respond with reported phosphorylation enrichment for every item in the list.
# TARGET OF ASSAY: Fes (UniProt P07332)
# Sequence (P07332 whole entry, looked up): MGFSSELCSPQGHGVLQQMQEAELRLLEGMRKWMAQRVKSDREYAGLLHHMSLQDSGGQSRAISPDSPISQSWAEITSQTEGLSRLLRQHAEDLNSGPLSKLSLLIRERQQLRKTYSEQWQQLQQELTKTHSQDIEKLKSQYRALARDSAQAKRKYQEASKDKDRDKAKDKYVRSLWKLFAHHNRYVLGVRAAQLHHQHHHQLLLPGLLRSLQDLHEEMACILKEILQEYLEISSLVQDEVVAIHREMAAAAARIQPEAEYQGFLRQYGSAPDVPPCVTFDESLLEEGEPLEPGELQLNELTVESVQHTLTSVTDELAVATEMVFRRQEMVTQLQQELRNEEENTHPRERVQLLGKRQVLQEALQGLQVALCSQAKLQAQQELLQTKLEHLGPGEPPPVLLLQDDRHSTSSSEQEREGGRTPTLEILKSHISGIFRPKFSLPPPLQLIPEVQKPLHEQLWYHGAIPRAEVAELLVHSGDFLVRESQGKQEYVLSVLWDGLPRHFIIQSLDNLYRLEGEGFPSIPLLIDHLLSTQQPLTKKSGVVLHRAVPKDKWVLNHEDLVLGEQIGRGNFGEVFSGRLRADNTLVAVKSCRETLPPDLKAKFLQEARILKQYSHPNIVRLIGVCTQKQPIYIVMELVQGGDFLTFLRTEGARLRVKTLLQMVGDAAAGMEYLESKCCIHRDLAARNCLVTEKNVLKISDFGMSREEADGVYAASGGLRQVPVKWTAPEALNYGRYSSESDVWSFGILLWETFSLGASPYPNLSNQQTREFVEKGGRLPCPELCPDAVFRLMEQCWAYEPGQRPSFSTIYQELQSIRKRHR
# TEST SUMMARY: phosphorylation enrichment, bacterial display (enrichment ratio); higher = better substrate or ligand; peptides without Tyr show the background
One number for each entry.

Below are some sequences; for each one, tell me its phosphorylation enrichment.
1. SSEFHCVGGFF [CTSC_Y347_Y347C_YF]
2. PPPPAYDDMAQ [TNK2_Y635_V638M]
3. LSAPWYLNRIS [HEXA_Y421]
4. ISITPYPAILH [IFT80_Y588]
5. IDFARYWHGDD [MMP11_Y162]
6. TPSGNYVACGG [GNB1_Y111_A106T]
7. PFAEPYADFGG [APBA1_Y187_S184A_YF]
8. VRFMEYETQVK [TARDBP_Y155_T153M]

Result:
[1.05, 1.04, 0.797, 1.24, 0.857, 0.8, 1.2, 0.981]

Problem: Check the records and state phosphorylation enrichment for FGGLRCGFGVL [KRTAP20-2_Y13_Y13C_YF]
Result: 1.14

----------
# TARGET OF ASSAY: FGFR1 (UniProt P11362)
# Sequence (P11362 whole entry, looked up): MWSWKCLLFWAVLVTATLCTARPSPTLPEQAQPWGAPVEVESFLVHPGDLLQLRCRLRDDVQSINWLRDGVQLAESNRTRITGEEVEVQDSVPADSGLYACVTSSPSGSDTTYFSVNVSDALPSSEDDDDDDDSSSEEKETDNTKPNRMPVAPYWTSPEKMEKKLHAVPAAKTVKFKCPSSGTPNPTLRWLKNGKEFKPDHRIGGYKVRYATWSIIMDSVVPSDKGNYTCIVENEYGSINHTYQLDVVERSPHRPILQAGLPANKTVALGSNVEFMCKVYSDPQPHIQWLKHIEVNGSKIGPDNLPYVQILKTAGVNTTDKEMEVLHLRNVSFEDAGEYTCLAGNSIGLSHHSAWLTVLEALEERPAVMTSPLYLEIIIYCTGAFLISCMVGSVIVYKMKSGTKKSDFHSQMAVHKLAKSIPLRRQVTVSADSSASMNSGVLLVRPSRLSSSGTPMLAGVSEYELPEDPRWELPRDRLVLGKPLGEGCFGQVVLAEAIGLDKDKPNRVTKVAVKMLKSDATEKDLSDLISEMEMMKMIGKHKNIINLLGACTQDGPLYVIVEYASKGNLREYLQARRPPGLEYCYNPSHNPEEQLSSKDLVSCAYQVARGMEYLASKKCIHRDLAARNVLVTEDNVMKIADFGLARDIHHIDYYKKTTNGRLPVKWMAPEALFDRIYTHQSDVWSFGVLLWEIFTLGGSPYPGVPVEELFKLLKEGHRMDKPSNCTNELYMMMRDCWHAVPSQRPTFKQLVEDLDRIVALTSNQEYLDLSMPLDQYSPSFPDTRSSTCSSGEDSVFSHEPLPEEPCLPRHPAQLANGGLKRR
# TEST SUMMARY: phosphorylation enrichment, bacterial display (enrichment ratio); higher = better substrate or ligand; peptides without Tyr show the background
PARAMETER MEASURED: phosphorylation enrichment
Numbers only.

Some entries whose results are on file:
Problem: Report phosphorylation enrichment, nothing else, for this sequence: DPHECYAKVFD [ALB_Y394]
Result: 0.506

Problem: Please supply the value of reported phosphorylation enrichment for the item KIIRWYVSSEG [ANK2_Y3907_R3906W]
Result: 0.55

Problem: Give me measured phosphorylation enrichment, please, for this sequence: FGGLRCGFGVL [KRTAP20-2_Y13_Y13C_YF]
Result: 0.45

Please look at the items below and tell me phosphorylation enrichment for each one, in order.
1. NYSKMYCNPDA [KNL1_Y489_A486S]
2. EIASHYRHLLR [ZBTB46_Y14_T11A]
3. VTAALYGRLFE [BTD_Y536_YF]
4. AKKKMYSHKTK [AGXT_Y231_R233H]
5. LLVVLYKYRCF [PSEN1_Y154_Y159F]
6. MPQNEYIELHR [NSA2_Y6]

Result:
0.483
0.416
0.439
0.621
1.11
1.95

----------
# TARGET OF ASSAY: FGFR3 (UniProt P22607)
# Sequence (P22607 whole entry, looked up): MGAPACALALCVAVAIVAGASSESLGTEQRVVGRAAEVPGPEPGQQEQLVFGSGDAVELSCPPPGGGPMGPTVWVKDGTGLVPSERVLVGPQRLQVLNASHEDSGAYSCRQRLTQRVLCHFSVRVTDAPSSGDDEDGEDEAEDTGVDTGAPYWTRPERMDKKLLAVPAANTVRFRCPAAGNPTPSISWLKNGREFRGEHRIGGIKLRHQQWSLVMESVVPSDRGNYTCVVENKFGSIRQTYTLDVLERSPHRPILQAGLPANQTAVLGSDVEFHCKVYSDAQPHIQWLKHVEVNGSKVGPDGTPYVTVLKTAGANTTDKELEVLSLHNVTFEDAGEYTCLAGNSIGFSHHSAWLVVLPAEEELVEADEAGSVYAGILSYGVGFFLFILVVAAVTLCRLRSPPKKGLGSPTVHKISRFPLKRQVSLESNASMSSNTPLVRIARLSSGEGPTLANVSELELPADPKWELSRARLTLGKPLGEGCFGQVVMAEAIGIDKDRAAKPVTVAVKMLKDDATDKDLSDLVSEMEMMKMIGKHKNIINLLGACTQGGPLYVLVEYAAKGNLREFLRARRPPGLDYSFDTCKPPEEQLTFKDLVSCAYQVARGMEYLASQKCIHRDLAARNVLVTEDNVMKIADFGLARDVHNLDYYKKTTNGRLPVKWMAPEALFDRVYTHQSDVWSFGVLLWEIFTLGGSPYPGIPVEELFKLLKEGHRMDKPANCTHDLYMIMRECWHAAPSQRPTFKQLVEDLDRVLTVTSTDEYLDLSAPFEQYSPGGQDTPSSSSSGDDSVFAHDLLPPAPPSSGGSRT
# TEST SUMMARY: phosphorylation enrichment, bacterial display (enrichment ratio); higher = better substrate or ligand; peptides without Tyr show the background
Dear colleague, classification is by phosphorylation enrichment, with ranges listed here: one: < 0.7; two: ≥ 0.7 and < 0.9; three: ≥ 0.9

// below: answered sequences
Problem: Which phosphorylation enrichment category applies to NPQKSYFILLY [WAS_Y83_R86L] here?
Result: three

Problem: Which band does LANNEYFFRVC fall in?
Result: three

Problem: In plain terms, what class is TKEPKYEGAGS [KIAA1210_Y1615] ?
Result: one

Problem: Hi, small favor: classify HVSISYDIPPT [GAB1_Y307] by its phosphorylation enrichment when you get a moment.
Result: three

Problem: Class? Entry: LFCLHYFHRTF [SRD5A2_Y91_V89L]
Result: three

Next:
Problem: Could you tell me which band CTTIHYNFMCK [TP53_Y234_N239K_YF] belongs to?
Result: one

Problem: # bin lookup: classify LLVVLYKYRCF [PSEN1_Y154_Y159F] by its phosphorylation enrichment
Result: three

Problem: Band of FESPRYLQVRI [FANCA_Y488_H492R] ?
Result: one

Problem: In plain terms, what class is EPSVDYCVVKI [CAD_Y735] ?
Result: three

Problem: Band for DTQNSYWCATS [TSC1_Y304_G305W] ?
Result: two

Problem: Category of ERWLKYFPNEQ [HS3ST5_Y244_I247N] :
Result: one

Problem: Into which bin does this sequence go? GQLIFYAPPEW [CNTN6_Y315]
Result: two

Problem: Class? Entry: EMFNPYFGLFE [NEDD4L_Y679_YF]
Result: three

Problem: Quick check: band for MLEVPYVDHNS [F10_Y384_R387H]
Result: two

Problem: For this sequence, which bin applies? CTTIHCNFMCN [TP53_Y234_Y234C_YF]
Result: one

Problem: Categorize the following entry: ALWYIYSHTRS [ENG_Y614]
Result: three

Problem: Which phosphorylation enrichment category applies to LITTLYIDFLG [KCNQ1_Y267_G269D] here?
Result: three

Problem: Which category fits this record: WFKKFYDANYD [MAPRE2_Y158]
Result: one

Problem: // bin(item) where item = LSQQVYRVNLS [FAT4_Y480_F475L]
Result: one

Problem: Would you mind sorting WNDPDYMDSRR [GAA_Y407_L405P] into the appropriate category?
Result: two

----------
# TARGET OF ASSAY: EPHB2 (UniProt P29323)
# Sequence (P29323 whole entry, looked up): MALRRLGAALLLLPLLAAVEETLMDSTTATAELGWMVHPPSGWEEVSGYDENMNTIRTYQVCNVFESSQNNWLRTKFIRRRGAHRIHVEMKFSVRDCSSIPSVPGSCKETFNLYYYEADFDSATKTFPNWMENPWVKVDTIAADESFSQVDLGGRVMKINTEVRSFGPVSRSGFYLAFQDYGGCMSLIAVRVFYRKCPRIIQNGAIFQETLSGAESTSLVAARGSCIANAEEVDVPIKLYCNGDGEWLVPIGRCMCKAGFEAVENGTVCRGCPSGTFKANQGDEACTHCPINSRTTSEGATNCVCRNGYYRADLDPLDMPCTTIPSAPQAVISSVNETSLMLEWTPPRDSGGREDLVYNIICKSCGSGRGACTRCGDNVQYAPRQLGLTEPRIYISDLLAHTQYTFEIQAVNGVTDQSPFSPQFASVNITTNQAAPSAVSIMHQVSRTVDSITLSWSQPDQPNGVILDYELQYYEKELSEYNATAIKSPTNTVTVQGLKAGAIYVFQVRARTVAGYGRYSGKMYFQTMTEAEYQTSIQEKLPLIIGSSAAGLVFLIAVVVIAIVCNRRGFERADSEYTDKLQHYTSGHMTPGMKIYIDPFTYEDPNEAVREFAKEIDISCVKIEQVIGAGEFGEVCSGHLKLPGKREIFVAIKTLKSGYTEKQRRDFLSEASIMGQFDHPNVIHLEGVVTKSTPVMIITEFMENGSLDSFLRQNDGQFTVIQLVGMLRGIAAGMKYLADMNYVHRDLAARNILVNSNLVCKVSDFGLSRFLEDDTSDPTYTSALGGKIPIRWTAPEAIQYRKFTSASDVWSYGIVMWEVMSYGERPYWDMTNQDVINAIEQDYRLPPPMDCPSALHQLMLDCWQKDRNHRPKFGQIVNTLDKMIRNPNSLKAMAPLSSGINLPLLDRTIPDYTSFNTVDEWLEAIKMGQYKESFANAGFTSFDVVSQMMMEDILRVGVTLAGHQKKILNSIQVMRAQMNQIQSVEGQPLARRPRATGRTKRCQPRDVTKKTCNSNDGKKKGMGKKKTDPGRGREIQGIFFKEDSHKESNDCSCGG
# TEST SUMMARY: phosphorylation enrichment, bacterial display (enrichment ratio); higher = better substrate or ligand; peptides without Tyr show the background
met means recorded phosphorylation enrichment is 0.5 or above; not met means it is below 0.5.

A selection of reference data follows.
Problem: Quick check: does REQREYLEQLN [CCDC88B_Y1277_D1279E] have phosphorylation enrichment greater than or equal to 0.5?
Result: met

Problem: Could you verify whether the entry RKNAKYLLKGE [CDH5_Y82] shows phosphorylation enrichment of no less than 0.5?
Result: met

Problem: Given the entry AFSLKYEQQTQ [SYTL4_Y366] , answer whether its phosphorylation enrichment meets or surpasses 0.5.
Result: met

Problem: phosphorylation enrichment >= 0.5 for DTQNSYWCATS [TSC1_Y304_G305W] ?
Result: not met

Problem: Please tell me: is the sequence DHAGEYGAEAL [HBA1_Y25_A20D] at or over 0.5 in terms of phosphorylation enrichment?
Result: met

Problem: Could you please find out whether TDTAAYEERLR [SPTB_Y474_V478L] has phosphorylation enrichment that meets 0.5 or exceeds it?
Result: met

More entries:
Problem: Check this sequence for phosphorylation enrichment at or above 0.5: VRFMEYETQVK [TARDBP_Y155_T153M]
Result: met

----------
# TARGET OF ASSAY: Fes (UniProt P07332)
# TEST SUMMARY: phosphorylation enrichment, bacterial display (enrichment ratio); higher = better substrate or ligand; peptides without Tyr show the background
Use condition met when the recorded phosphorylation enrichment is no lower than 0.9; use condition not met when it is lower.

Worked cases, answers included:
Problem: Is the recorded value of phosphorylation enrichment equal to or greater than 0.9 for this sequence? CTTIHFNYMCN [TP53_Y234_Y234F]
Result: condition not met

Problem: Threshold query (phosphorylation enrichment >= 0.9) on IHADICRWFNI [MARS1_Y344_Y344C]
Result: condition met

Problem: Form field: phosphorylation enrichment at least 0.9? Entry: WDSSGYWTPEE [PAPPA2_Y908_C903W]
Result: condition met

Further cases:
Problem: Form field: phosphorylation enrichment at least 0.9? Entry: EEQFFYEKAIL [BCCIP_Y257_E254Q]
Result: condition met

Problem: Does phosphorylation enrichment meet or surpass 0.9 for RSPLRYISILT [OR51B6_Y130_T131I] ?
Result: condition not met

Problem: Quick check, phosphorylation enrichment >= 0.9? NVVVPYEPPEV [TP53_Y220_S215N]
Result: condition met

Problem: Record KFLENYFDLKK [MMP3_Y41_YF] ; criterion: phosphorylation enrichment no lower than 0.9. Met?
Result: condition met

Problem: Given the entry FKGKNYKPLDL [RPL35_Y78_K77N_YF] , answer whether its phosphorylation enrichment meets or surpasses 0.9.
Result: condition not met

The reported numbers originate from the supplement of paper PMC10065799.
